system: apomorphine-induced emesis in dogs; assay: Reduction of apomorphine-induced emesis in dogs (anti-emetic effect); type: in vivo; settings: dogs, 5 mg/kg s.c.; percent reduction in emesis over that of controls; apomorphine hydrochloride 0.1 mg/kg s.c.
This listing pairs compounds with measured % Reduction in Emesis.
Write the value in % as a bare number.

Below, 4 compounds whose answers are already recorded.
CC(=O)Nc1ccccc1C(=O)NC1CCN(C2CCCCC2)C1 (centres unmarked)
-95
CC(=O)Nc1ccc(C(=O)NC2CCN(Cc3ccccc3)C2)cc1 (centres unmarked)
-59
CC(=O)Nc1cccc(C(=O)NC2CCN(C3CCCCC3)C2)c1 (centres unmarked)
-87
CS(=O)(=O)N(c1ccc(C(=O)NC2CCN(C3CCCCC3)C2)cc1)S(C)(=O)=O (centres unmarked)
-44

Proceeding to the next compound to report its % Reduction in Emesis.
Fill in reported % Reduction in Emesis for this entry: CS(=O)(=O)Nc1ccc(C(=O)NC2CCN(C3CCCCC3)C2)cc1 (centres unmarked) -86

Source listed as patent US4279822A.
